Entry source: the Human Domainome abundance scans (Beltran et al. 2025)

B1: Cyclin-F, residues 28 to 80; numbered along this chain, P41002 (parent)
chain: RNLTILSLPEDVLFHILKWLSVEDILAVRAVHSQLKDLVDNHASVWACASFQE

# Variants of: B1
# TEST METHOD NOTES: abundance fitness (aPCA) (normalised: wild type 0, dead -1); higher = more abundant; growth selection in yeast, the domain comes from the species named
# SETTINGS: Homo sapiens
# abundance fitness binned as c1: < -0.6; c2: ≥ -0.6 and < -0.1; c3: ≥ -0.1

sequence_data="RNLTILSLPEDVLFHILKWLSVEDILAVRFVHSQLKDLVDNHASVWACASFQE [A30F]" assigned_label=c1
sequence_data="RNLTILSLPEDVLFHILKWLSVEDILAVRAVHSQLKDLVDNHASVWACASFQH [E53H]" assigned_label=c1
sequence_data="RNLTILSLPEDVLFHILKWLSVEDILALRAVHSQLKDLVDNHASVWACASFQE [V28L]" assigned_label=c3
sequence_data="RNLTILSLPEDVLFHILKWLSVEDILAVRAVHSALKDLVDNHASVWACASFQE [Q34A]" assigned_label=c2
sequence_data="RNLTILSLPEDVLFHILKWLSVEDILAVRAVHSQLKDLVDNHAVVWACASFQE [S44V]" assigned_label=c2

IN: Which bin should I file RNLTILSLPEDVLFHILKWLSVEDILAVPAVHSQLKDLVDNHASVWACASFQE [R29P] under?
OUT: c1

IN: Given RNLTILSLPEDSLFHILKWLSVEDILAVRAVHSQLKDLVDNHASVWACASFQE [V12S] , name the class its abundance fitness places it in.
OUT: c1

IN: Category of RNLTILSLPEDVLFHILKWLSVEDILAVRAVHSQLKDLVDQHASVWACASFQE [N41Q] :
OUT: c3
